- Test system: SK-MEL-5 melanoma
- test_method_notes: NCI-60 one-dose screen, 48 h
- condition_description: 10 µM unless noted
This is part of a sample that, as a whole, favours compounds with a hit. Of some 83,000 tested, about 20% had one in any assay. Activity calls are given as the source filed them. The calls were made as follows: active = growth percent below 10; inactive = the rest.
Possible outcomes: active, inactive

compound: Cc1cc(C)c2c(c1)N(C)c1ncnc(-n3cnc4cc(C)ccc43)c1CC2C (stereo not drawn)
group_label: active
//
compound: CNC(=O)c1[nH]cc(-c2ccc(OC)cc2)c1-c1cc(OC)c2c(c1OC)OCO2
group_label: inactive
//
compound: Cc1ccccc1/C=C/C(=O)c1cccc(OCCCCOc2cccc(C(=O)/C=C/c3ccccc3C)c2)c1
group_label: inactive
//
compound: CC(=O)/C(=C\c1c(-c2ccccc2)[nH]c2ccccc12)S(C)(=O)=O
group_label: active
//
compound: C#CCNC(=O)[C@H](CC)[C@H]1CC[C@H](C)[C@H]([C@@H](C)[C@H](O)[C@H](C)C(=O)[C@H](CC)C2O[C@]3(C=CC(=O)[C@]4(CC[C@@](C)([C@H]5CC[C@](O)(CC)[C@H](C)O5)O4)O3)[C@H](C)C[C@@H]2C)O1 (stereo partly drawn)
group_label: active
//
compound: C#CCOc1cccc(Nc2ncnc3ccc(NC(=O)C=C)cc23)c1
group_label: inactive
//
compound: CCOc1ccc(NC(=O)CSc2oc(-c3ccccc3)nc2S(=O)(=O)c2ccc(C)cc2)cc1
group_label: inactive
//
compound: O=C(/C=C/c1ccccc1)Nc1ncc(Cc2ccccc2Cl)s1
group_label: inactive
//
compound: N#Cc1nc(-c2ccc(Cl)cc2)oc1S(=O)(=O)N1CCN(c2ccc(F)cc2)CC1
group_label: inactive
//
compound: COc1ccc(C(=O)Nc2cccc(-c3cc(=O)c4c(OC)c(OC)c(OC)cc4o3)c2)cc1
group_label: inactive
//
compound: O=C(c1ccccc1)c1ccc(C2CCCCC2)cc1
group_label: inactive
//
compound: C=C1C(=O)O[C@H]2[C@H]1CC/C(Cn1cc(-c3ccccc3)nn1)=C\CC[C@@]1(C)O[C@@H]21
group_label: inactive
//
compound: CCCCC1=C(P(=O)(O)O)N[C@H](C(=O)O)CS1
group_label: inactive
//
compound: CC(=O)N1N=C(c2ccc(Nc3nc(Nc4ccccc4)nc(Nc4ccccc4)n3)cc2)CC1c1ccccc1 (stereo not drawn)
group_label: inactive
//
compound: CCOC(=O)c1c(C(=O)c2cn(C)c3ccc(Br)cc23)c(-c2cn(C)c3ccc(Br)cc23)n(NC(=O)OC(C)(C)C)c1C
group_label: inactive
//
compound: Cc1ccc(CNc2ccc3nc(CCC4CCCCC4)[nH]c3c2)cc1
group_label: active
//
compound: CCOC(=O)c1cc2c(n1Cc1cc(OC)c(OC)c(OC)c1)-c1nc(N)sc1CCC2
group_label: inactive
//
compound: Nc1nc2ccccc2c2c1S(=O)(=O)c1ccc(Cl)cc1C2=O
group_label: inactive

###

Catalogue of growth readings, one per entry.
- Test system: MDA-MB-231 breast
- test_method_notes: NCI-60 one-dose screen, 48 h (100 = growth as untreated, 0 = no growth, -100 = all killed)
- condition_description: 10 µM unless noted
About 83,000 compounds went through this panel and 20% of them were active in at least one assay; those are over-represented in the sample as a whole.
measure: growth (%)

compound: CCN1C(=S)N(c2ccccc2)C2NC(=S)N(/N=C/C=C/c3ccccc3OC)C21 (stereo unspecified)
readout_units: %
data_value: 10.5
//
compound: Oc1ccc(Cl)cc1/C=N\NC(=S)N/N=C/c1cc(Cl)ccc1O
readout_units: %
data_value: 37.2
//
compound: CCCCCOC(=O)c1c(C)[nH]c(/C=C2\N=C(c3ccc[nH]3)C=C2OC)c1C
readout_units: %
data_value: -48.5
//
compound: O=c1scc(-c2ccc(C(F)(F)F)cc2)s1
readout_units: %
data_value: 104
//
compound: COc1cc2ncnc(Nc3ccc(F)c(Cl)c3)c2cc1OCC(=O)N1CCN(c2ccccc2)CC1
readout_units: %
data_value: 90.5
//
compound: CSc1nc2ncc([N+](=O)[O-])c(=O)n2[nH]1
readout_units: %
data_value: 108
//
compound: CC(C)(C)CC(C)(C)NC(=O)Nc1ncccc1OCc1ccccc1
readout_units: %
data_value: 96.9
//
compound: N#CC1=C(N)Oc2c(ccc3ccccc23)C1c1ccccc1 (stereo unspecified)
readout_units: %
data_value: 28.3
//
compound: O=C1/C(=C/c2ccccc2O)CC/C1=C\c1ccccc1O
readout_units: %
data_value: 44.3
//
compound: O=C(/C=C/c1ccccc1)Nc1ncc(Cc2ccccc2Cl)s1
readout_units: %
data_value: 40.3
//
compound: CS(=O)(=O)c1ccc(-c2cnn3ccc(-c4cccc(S(=O)(=O)C5CC5)c4)nc23)cc1
readout_units: %
data_value: 53
//
compound: COc1ccc(C2CC(c3ccc(Nc4nc(Nc5ccccc5)nc(Nc5ccccc5)n4)cc3)=NN2C(C)=O)cc1 (stereo unspecified)
readout_units: %
data_value: 95.5
//
compound: Cc1ccc2c(n1)C(=O)C(Br)=C(CC(C)C)C2=O
readout_units: %
data_value: 91.4
//
compound: Cc1csc(Nc2nc(-c3ccccn3)nc(C(Cl)(Cl)Cl)n2)n1
readout_units: %
data_value: 80.3
//
compound: O=C(/C=C/c1cn(-c2ccccc2)nc1-c1ccc(Cl)cc1)c1ccc(F)cc1
readout_units: %
data_value: 65.6
//
compound: Nc1ncc(-c2ccc3ncnc(Nc4cccc(Cl)c4)c3c2)cn1
readout_units: %
data_value: 42.1
//
compound: C=C(C)[C@@H]1CCC[C@]2(COS(=O)(=O)c3ccc(C)cc3)CC[C@]3(C)[C@@H](CC[C@@H]4[C@@]5(C)CCCNC(C)(C)[C@@H]5CC[C@]43C)[C@@H]12
readout_units: %
data_value: -10.3
//
compound: COc1cc2c(c(OC)c1OC)CCC(c1cccc(C(=O)Nc3ccc(C#N)cc3)c1)O2 (stereo unspecified)
readout_units: %
data_value: 49.4
//
compound: O=C(CN1C(=O)S/C(=C\C(Cl)=C\c2ccccc2)C1=O)NCCc1ccc(O)cc1
readout_units: %
data_value: 30.4
//
compound: COc1ccc(NC2=C(I)C(=O)c3ncccc3C2=O)cc1
readout_units: %
data_value: -11.8
//
compound: NS(=O)(=O)c1ccccc1NC(=O)Nc1nc2ccccc2s1
readout_units: %
data_value: 97
